Source listed as paper PMC6637425.

Molecular target: BACE1 enzyme (Homo sapiens)
Sequence (P56817 46-501): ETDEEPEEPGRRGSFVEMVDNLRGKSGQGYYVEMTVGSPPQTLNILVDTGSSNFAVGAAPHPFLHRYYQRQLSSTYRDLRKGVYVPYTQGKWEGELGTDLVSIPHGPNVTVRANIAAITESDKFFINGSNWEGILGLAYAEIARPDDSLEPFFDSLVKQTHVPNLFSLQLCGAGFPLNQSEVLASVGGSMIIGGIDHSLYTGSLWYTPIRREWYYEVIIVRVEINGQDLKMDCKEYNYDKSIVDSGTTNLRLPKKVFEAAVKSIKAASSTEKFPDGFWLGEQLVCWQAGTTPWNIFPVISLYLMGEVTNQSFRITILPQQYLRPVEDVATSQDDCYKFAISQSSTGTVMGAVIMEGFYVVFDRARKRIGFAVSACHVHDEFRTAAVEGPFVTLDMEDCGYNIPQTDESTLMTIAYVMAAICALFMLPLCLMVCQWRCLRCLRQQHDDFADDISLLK
Assay: BACE1 enzyme inhibition, Ki from kinetic data under tight-binding conditions
Assay type: biochemical
Conditions: Ki (nM) BACE1, Table 3
Measured Ki accompanies every entry in the list below.
Expressed in nM, but write only the number.

Consider the following illustrative entries.
structure-string	assay-endpoint	quantitative-readout
COc1cccc(CNC[C@@H](O)[C@H](Cc2ccccc2)NC(=O)c2cc(C)cc(C(=O)N(C)Cc3nc(C)co3)c2)c1	Ki	25.4
C[C@H](c1ccccc1)N(C)C(=O)c1cccc(C(=O)N[C@@H](Cc2ccccc2)[C@H](O)CNCc2cccc(C(F)(F)F)c2)c1	Ki	1350

Read the next record carefully.
For the compound "COc1cccc(CNC[C@@H](O)[C@H](Cc2ccccc2)NC(=O)c2cccc(C(=O)N(C)Cc3nc(C)co3)c2)c1" , give its reported Ki. 68.8
